- Test target: human GLP-1 receptor (human, UniProt P43220 24-463)
- Assay info: cell-based or functional assay
Reported metric: cAMP EC50 (1.0% HSA) (nM)

Binder	Numeric result
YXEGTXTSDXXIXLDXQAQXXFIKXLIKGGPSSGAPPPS (Y-Aib-EGT-αMeF(2F)-TSD-4Pal-Aib-I-αMeL-LD-Orn-QAQ-Aib-Orn-FIK((2-[2-(2-Amino-ethoxy)-ethoxy]-acetyl)2-(γ-Glu)2-CO-(CH2)12-CO2H)-αMeY-LIK((2-[2-(2-Amino-ethoxy)-ethoxy]-acetyl)2-(γ-Glu)2-CO-(CH2)12-CO2H)GGPSSGAPPPS-NH2) [Example 474]	1.1
YXEGTXTSDYXIXLDXQAQXXFIKXLIKGGPSSGAPPPS (Y-Aib-EGT-αMeF(2F)-TSDY-Aib-I-αMeL-LD-Orn-QAQ-Aib-Orn-FIK((2-[2-(2-Amino-ethoxy)-ethoxy]-acetyl)2-(γ-Glu)2-CO-(CH2)12-CO2H)-αMeY-LIK((2-[2-(2-Amino-ethoxy)-ethoxy]-acetyl)2-(γ-Glu)2-CO-(CH2)12-CO2H)GGPSSGAPPPS-NH2) [Example 480]	2.65
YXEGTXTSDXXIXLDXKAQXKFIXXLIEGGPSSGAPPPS (Y-Aib-EGT-αMeF(2F)-TSD-4Pal-Aib-I-αMeL-LD-Orn-K((2-[2-(2-Amino-ethoxy)-ethoxy]-acetyl)3-(γ-Glu)-CO-(CH2)10-CH3)AQ-Aib-K((2-[2-(2-Amino-ethoxy)-ethoxy]-acetyl)3-(γ-Glu)-CO-(CH2)10-CH3)FI-(D-Glu)-αMeY-LIEGGPSSGAPPPS-NH2) [Example 422]	3.84
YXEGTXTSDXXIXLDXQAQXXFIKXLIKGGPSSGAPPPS (Y-Aib-EGT-αMeF(2F)-TSD-4Pal-Aib-I-αMeL-LD-Orn-QAQ-Aib-Orn-FIK((2-[2-(2-Amino-ethoxy)-ethoxy]-acetyl)-(γ-Glu)-(2-[2-(2-Amino-ethoxy)-ethoxy]-acetyl)-(γ-Glu)-CO-(CH2)12-CO2H)-αMeY-LIK((2-[2-(2-Amino-ethoxy)-ethoxy]-acetyl)-(γ-Glu)-(2-[2-(2-Amino-ethoxy)-ethoxy]-acetyl)-(γ-Glu)-CO-(CH2)12-CO2H)GGPSSGAPPPS-NH2) [Example 484]	3.66
YXEGTXTSDXSIXLDXQAQXXFIKXLIKGGPSSGAPPPS (Y-Aib-EGT-αMeF(2F)-TSD-hY-SI-αMeL-LD-Orn-QAQ-Aib-Orn-FIK((2-[2-(2-Amino-ethoxy)-ethoxy]-acetyl)2-(γ-Glu)-CO-(CH2)12-CO2H)-αMeY-LIK((2-[2-(2-Amino-ethoxy)-ethoxy]-acetyl)2-(γ-Glu)-CO-(CH2)12-CO2H)GGPSSGAPPPS-NH2) [Example 491]	5.51
YXEGTXTSDXXIXLDXKAQXKXIXXLIEGGPSSGAPPPS (Y-Aib-EGT-αMeF(2F)-TSD-4Pal-Aib-I-αMeL-LD-Orn-K((2-[2-(2-Amino-ethoxy)-ethoxy]-acetyl)3-(γ-Glu)-CO-(CH2)10-CH3)AQ-Aib-K((2-[2-(2-Amino-ethoxy)-ethoxy]-acetyl)3-(γ-Glu)-CO-(CH2)10-CH3)-αMeF-I-(D-Glu)-αMeY-LIEGGPSSGAPPPS-NH2) [Example 437]	9.65
